- Test system: IL-6 in THP-1 cells
- PROCEDURE TEXT: Inhibition of IL-6 in LPS-stimulated THP-1 human monocyte cells (HTRF)
- Assay type: cell-based
- CONDITION INFO: LPS, IL-6 HTRF, at 10 μM, read-out: percent inhibition in brackets (given for EC50 >10 μM)
QUANTITY KIND: inhibition at 10 µM (%)
Expressed in %, but write only the number.

Study these solved cases before continuing.
[[record]]
record_smiles = "O=C(Nc1cncc(-c2ccc3[nH]nc(-c4nc5c(-c6ccsc6)cncc5[nH]4)c3n2)c1)c1ccccc1"
measured_on = "IL-6 in THP-1 cells"
quantity_kind = "inhibition at 10 µM"
unit_descriptor = "%"
measured_result = 36.3

[[record]]
record_smiles = "CN(C)Cc1cncc(-c2ccc3[nH]nc(-c4nc5c(-c6cccs6)cncc5[nH]4)c3n2)c1"
measured_on = "IL-6 in THP-1 cells"
quantity_kind = "inhibition at 10 µM"
unit_descriptor = "%"
measured_result = 22.2

[[record]]
record_smiles = "Cc1ccc(-c2cncc3[nH]c(-c4n[nH]c5ccc(-c6cncc(NC(=O)C(C)C)c6)nc45)nc23)s1"
measured_on = "IL-6 in THP-1 cells"
quantity_kind = "inhibition at 10 µM"
unit_descriptor = "%"
measured_result = 41.3


We now examine a further compound.
Which inhibition at 10 µM is listed for Cn1cc(-c2ccc3[nH]nc(-c4nc5c(-c6ccc(F)cc6)cncc5[nH]4)c3n2)c(CO)n1 ?
4.1

---

- Test system: Wnt activity (Sp5-Luc reporter, human Sp5 promoter with eight TCF/LEF binding sites) in SW480 colon carcinoma cells
- PROCEDURE TEXT: Screening assay for Wnt activity: Sp5-Luc reporter gene assay in SW480 cells
- Format: cell-based
- CONDITION INFO: 10 μM, read-out: percent inhibition at 10 μM (given for EC50 of >10 μM)
Listed here: items and their measured inhibition at 10 µM.
Reply with just the number (in %).

[[record]]
compound = "c1ccc(CNCc2cncc(-c3ccc4[nH]nc(-c5nc6c(-c7cccnc7)cncc6[nH]5)c4n3)c2)cc1 [Compound 108]"
measured_result = 5.3

[[record]]
compound = "O=C(Nc1cncc(-c2ccc3[nH]nc(-c4nc5c(-c6ccsc6)cncc5[nH]4)c3n2)c1)c1ccccc1 [Compound 263]"
measured_result = 7.6

[[record]]
compound = "CCCCC(=O)Nc1cncc(-c2ccc3[nH]nc(-c4nc5c(-c6ccoc6)cncc5[nH]4)c3n2)c1 [Compound 299]"
measured_result = 14.7


Could you now look at the following compound, please?
// lookup inhibition at 10 µM for Cc1ncc(-c2ccc3[nH]nc(-c4nc5c(-c6cccc(F)c6)cncc5[nH]4)c3n2)n1C [Compound 481]
46

---

- Test system: IL-6 in THP-1 cells
- PROCEDURE TEXT: Inhibition of IL-6 in LPS-stimulated THP-1 human monocyte cells (HTRF)
- Assay type: cell-based
- CONDITION INFO: LPS, IL-6 HTRF, at 10 μM, read-out: percent inhibition in brackets (given for EC50 >10 μM)
Classify on inhibition at 10 µM using bin A (below 10%), bin B (10% to below 30%), bin C (30% or more)

Examples from the recorded data:
[[record]]
record_smiles = "O=C(Nc1cncc(-c2ccc3[nH]nc(-c4nc5c(-c6cccs6)cncc5[nH]4)c3n2)c1)C1CC1"
class = "bin C"

[[record]]
record_smiles = "CCCC(=O)Nc1cncc(-c2ccc3[nH]nc(-c4nc5c(-c6ccncc6)cncc5[nH]4)c3n2)c1"
class = "bin B"

[[record]]
record_smiles = "CS(=O)(=O)NCc1cc(F)cc(-c2cncc3[nH]c(-c4n[nH]c5ccc(-c6cncnc6)nc45)nc23)c1"
class = "bin A"

[[record]]
record_smiles = "Cn1cc(-c2ccc3[nH]nc(-c4nc5c(-c6ccc7c(c6)OCO7)cncc5[nH]4)c3n2)c(CO)n1"
class = "bin A"

[[record]]
record_smiles = "COc1cccc(-c2cncc3[nH]c(-c4n[nH]c5ccc(-c6cncc(NC(=O)CC(C)(C)C)c6)nc45)nc23)c1"
class = "bin B"

[[record]]
record_smiles = "Fc1cccc(-c2cncc3[nH]c(-c4n[nH]c5ccc(-c6cnccn6)nc45)nc23)c1"
class = "bin B"


Note: place this molecule into its band. Item: Cc1ncc(-c2ccc3[nH]nc(-c4nc5c(-c6cccc(F)c6)cncc5[nH]4)c3n2)n1C
bin C

Band of c1cc(-c2cncc3[nH]c(-c4n[nH]c5ccc(-c6cnccn6)nc45)nc23)ccn1 ?
bin A

Which inhibition at 10 µM band matches COc1cncc(-c2ccc3[nH]nc(-c4nc5c(-c6cccc(F)c6)cncc5[nH]4)c3n2)c1 ?
bin C

---

- Tested on: IL-6 in THP-1 cells
- PROCEDURE TEXT: Inhibition of IL-6 in LPS-stimulated THP-1 human monocyte cells (HTRF)
- Assay type: cell-based
- CONDITION INFO: LPS, IL-6 HTRF, at 10 μM, read-out: percent inhibition in brackets (given for EC50 >10 μM)
- Experimental: Human Monocyte Cell Culture: Human monocyte cell line (THP-1 cells; Catalog # TIB-202, ATCC, Manassas, Va.) were cultured in Roswell Park Memorial Institute (RPMI) 1640 Medium (Catalog #21870-100, Buffalo, N.Y.) with 1% L-glutamine, 1% HEPES, 1% Sodium Pyruvate, 2% Sodium Bicarbonate supplemented with 100 units/mL penicillin, 50 μg/mL streptomycin, 2-mercaptoethanol (0.05 mM) [basal medium] and 10% fetal bovine serum (Catalog #16140089, Life Technologies, Carlsbad, Calif.) at 37° C. and 5% CO2. […]
QUANTITY KIND: inhibition at 10 µM (%)
Express the result in % but write the number alone.

[[record]]
record_smiles = "Fc1ccc(-c2cncc3[nH]c(-c4n[nH]c5ccc(-c6cncnc6)nc45)nc23)cc1"
measured_result = 13.4

[[record]]
record_smiles = "c1csc(-c2cncc3[nH]c(-c4n[nH]c5ccc(-c6ccncc6)nc45)nc23)c1"
measured_result = 22.3

[[record]]
record_smiles = "Fc1cccc(-c2cncc3[nH]c(-c4n[nH]c5ccc(C6=CCNCC6)nc45)nc23)c1"
measured_result = 18.6

[[record]]
record_smiles = "Fc1cccc(-c2cncc3[nH]c(-c4n[nH]c5ccc(-c6cn[nH]c6)nc45)nc23)c1"
measured_result = 15.7

[[record]]
record_smiles = "CCNCc1cncc(-c2ccc3[nH]nc(-c4nc5c(-c6ccoc6)cncc5[nH]4)c3n2)c1"
measured_result = 14.5


Given the entry CCCCC(=O)Nc1cncc(-c2ccc3[nH]nc(-c4nc5c(-c6ccccn6)cncc5[nH]4)c3n2)c1 , report its measured inhibition at 10 µM.
28.2

inhibition at 10 µM lookup needed for CCC(=O)Nc1cncc(-c2ccc3[nH]nc(-c4nc5c(N6CCCCC6)cncc5[nH]4)c3n2)c1 , thanks.
25.6

---

- Test system: IL-6 in THP-1 cells
- PROCEDURE TEXT: Inhibition of IL-6 in LPS-stimulated THP-1 human monocyte cells (HTRF)
- Format: cell-based
- CONDITION INFO: LPS, IL-6 HTRF, at 10 μM, read-out: percent inhibition in brackets (given for EC50 >10 μM)
Measured inhibition at 10 µM by item
Respond with the bare value in %.

May I ask what inhibition at 10 µM has been recorded for CS(=O)(=O)NCc1cc(F)cc(-c2cncc3[nH]c(-c4n[nH]c5ccc(-c6cncc(CNCc7ccccc7)c6)nc45)nc23)c1 [Compound 472] ?
39.3

---

Reported inhibition at 10 µM values for a set of compounds
- Test system: IL-6 in THP-1 cells
- PROCEDURE TEXT: Inhibition of IL-6 in LPS-stimulated THP-1 human monocyte cells (HTRF)
- Format: cell-based
- CONDITION INFO: LPS, IL-6 HTRF, at 10 μM, read-out: percent inhibition in brackets (given for EC50 >10 μM)
Number in %, nothing else.

Below are worked cases with known answers.
[[record]]
compound = "c1cc2c(cc1-c1cncc3[nH]c(-c4n[nH]c5ccc(C6CCNCC6)nc45)nc13)OCO2 [Compound 1063]"
unit_descriptor = "%"
measured_result = 32.7

[[record]]
compound = "Cn1cc(-c2ccc3[nH]nc(-c4nc5c(-c6cccc(F)c6)cncc5[nH]4)c3n2)cn1 [Compound 480]"
unit_descriptor = "%"
measured_result = 9.7


GET /values?readout=inhibition at 10 µM&system=IL-6 in THP-1 cells&item= Oc1cncc(-c2ccc3[nH]nc(-c4nc5c(-c6cccc(F)c6)cncc5[nH]4)c3n2)c1 [Compound 489]
43.3

Param readout = inhibition at 10 µM; param system = IL-6 in THP-1 cells; param query = Cc1ncc(-c2ccc3[nH]nc(-c4nc5c(-c6ccoc6)cncc5[nH]4)c3n2)n1C [Compound 641] ; response: value
8.9

---

- Test system: IL-6 in THP-1 cells
- PROCEDURE TEXT: Inhibition of IL-6 in LPS-stimulated THP-1 human monocyte cells (HTRF)
- Format: cell-based
- CONDITION INFO: LPS, IL-6 HTRF, at 10 μM, read-out: percent inhibition in brackets (given for EC50 >10 μM)
QUANTITY KIND: inhibition at 10 µM (%)
Report only the number, with the unit % understood.

[[record]]
record_smiles = "Fc1ccc(-c2cncc3[nH]c(-c4n[nH]c5ccc(-c6cncc(CN7CCCC7)c6)nc45)nc23)cc1"
measured_result = 42


Reported inhibition at 10 µM for CN(C)CCOc1cncc(-c2ccc3[nH]nc(-c4nc5c(-c6cccc(F)c6)cncc5[nH]4)c3n2)c1 : what is it?
33.4

Recorded inhibition at 10 µM of Cc1ccncc1-c1ccc2[nH]nc(-c3nc4c(-c5cc(F)cc(CNS(C)(=O)=O)c5)cncc4[nH]3)c2n1 , please.
23.9

What value of inhibition at 10 µM has been reported for the following compound? O=C(Nc1cncc(-c2ccc3[nH]nc(-c4nc5c(-c6ccncc6)cncc5[nH]4)c3n2)c1)C1CCCCC1
26.6

// returns reported inhibition at 10 µM for input Cc1ncc(-c2ccc3[nH]nc(-c4nc5c(-c6cccc(F)c6)cncc5[nH]4)c3n2)s1
7.7

Reported inhibition at 10 µM, compound CCC(=O)Nc1cncc(-c2ccc3[nH]nc(-c4nc5c(-c6cccc(F)c6)cncc5[nH]4)c3n2)c1 : ____
25.8

I'd like to know its inhibition at 10 µM. The compound in question is Cc1cn(-c2cncc3[nH]c(-c4n[nH]c5ccc(-c6cncc(NC(=O)CC(C)C)c6)nc45)nc23)cn1
14.5

Look up inhibition at 10 µM for this compound: Fc1cccc(-c2cncc3[nH]c(-c4n[nH]c5ccc(-c6cncc(OC7CCNCC7)c6)nc45)nc23)c1
11.3

Requested read-out: inhibition at 10 µM. Entry: Fc1cccc(-c2cncc3[nH]c(-c4n[nH]c5ccc(C6CCNCC6)nc45)nc23)c1
13

Give its inhibition at 10 µM value. Item: CCCCC(=O)Nc1cncc(-c2ccc3[nH]nc(-c4nc5c(-c6ccoc6)cncc5[nH]4)c3n2)c1
48.6
